Test system: DNA synthesis in CEM cells
Assay: Antimetabolic activity assay, [CH3-3H]dThd incorporation (DNA synthesis), CEM
Assay type: cell-based
Details: Homo sapiens, CCRF-CEM, incorporation into TCA-insoluble material
Experimental: Radiolabeled precursors of DNA synthesis ([^3H-methyl]dThd), RNA synthesis ([5-^3H]Urd), and protein synthesis ([4,5-^3H]leu) were added to 10^5 CEM cell cultures in the 200 μl-wells of a microtiter plate at 1 μCi for each precursor in the presence of varying concentrations of the test compounds (5-fold dilution series). […] At the end of the incubation period, the contents of the wells were brought onto 25-mm glass fiber filters and further processed for measurement of acid-insoluble radioactivity.
OBSERVABLE: IC50 (µM)

Sample records with IC50:
# COMPOUND_STRUCTURE, MEASUREMENT_UNITS, IC50
data = [
    ("CCOC(=O)c1cc(C#Cc2ccc(OC)cc2)sc1N", "µM", 2.3),
    ("CCOC(=O)c1cc(CCc2ccc(OC)cc2)sc1N", "µM", 11),
    ("CCOC(=O)c1c(N)sc(CCc2cc(OC)ccc2OC)c1C(=O)OCC", "µM", 17),
    ("COC(=O)c1cc(CCc2ccc(OC)cc2C)sc1N", "µM", 3.1),
    ("COC(=O)c1cc(CCc2ccsc2)sc1N", "µM", 3.2),
]

I: COC(=O)c1cc(CCc2ccccc2)sc1N
II: COC(=O)c1cc(CCc2ccccc2OC)sc1N
III: CCOC(=O)c1cc(-c2ccc(OC)cc2)sc1N
IV: CCOC(=O)c1cc(CCc2ccccc2OC)sc1N
Hey, quick one: sort these by IC50, largest value first please. List the labels in the requested order.
IV, III, II, I
(IV: 68 µM, III: 15 µM, II: 6.4 µM, I: 3.1 µM)

====

Tested on: HUT-78 cells
Assay: Cytostatic assay, HUT-78
Assay type: cell-based
Details: Homo sapiens, HuT78; Table 2
OBSERVABLE: IC50 (µM)

Sample records with IC50:
# COMPOUND, TEST_SYSTEM, MEASUREMENT_UNITS, IC50
measured = [
    ("CCOC(=O)c1c(N)sc(CCc2cc(OC)ccc2OC)c1C(=O)OCC [TR592]", "HUT-78 cells", "µM", 26),
    ("CCOC(=O)c1c(N)sc(CCc2ccc(OC)cc2)c1C(=O)OCC [TR547]", "HUT-78 cells", "µM", 120),
    ("COC(=O)c1cc(-c2cc(OC)ccc2OC)sc1N [TR601]", "HUT-78 cells", "µM", 109),
    ("COc1ccc(CCc2cc(C#N)c(N)s2)cc1 [TR586]", "HUT-78 cells", "µM", 17),
    ("COC(=O)c1cc(CCc2cccnc2)sc1N [TR597]", "HUT-78 cells", "µM", 59),
]

a: COC(=O)c1c(N)sc(CCc2cc(OC)ccc2OC)c1C [TR599]
b: CCOC(=O)c1cc(-c2ccc(OC)cc2)sc1N [TR525]
Problem: Given the entries a and b , determine which has the lower reported IC50. Give the label of your selection.
a
(a: 21 µM, b: 117 µM)

====

Tested on: HeLa cervix carcinoma cells
Assay: Cytostatic assay, HeLa
Assay type: cell-based, human
Settings: Table 1c; read-out: IC50 (μM) HeLa
OBSERVABLE: IC50 (µM)
Could you give me the number in µM? Just the number is fine.

Quick check: IC50 of CCCCSCc1cc(C(=O)OC)c(N2C(=O)c3ccccc3C2=O)s1 ?
104

====

Test system: BAEC aortic endothelial cells
Experiment: Cytostatic assay, BAEC
Assay type: cell-based, bovine
Conditions: Bos taurus, Table 3
OBSERVABLE: IC50 (µM)

# COMPOUND_STRUCTURE, OBSERVABLE, VALUE_REPORTED
records = [
    ("N#Cc1cc(CCc2ccccc2)sc1N", "IC50", 45),
]

1: COC(=O)c1cc(-c2ccccc2OC)sc1N
2: CCOC(=O)c1cc(-c2ccc(OC)cc2)sc1N
Problem: Given the entries 1 and 2 , determine which has the lower reported IC50. Give the label of your selection.
1

====

Test system: Daudi, human B-lymphoma cells
Assay: Cytostatic assay, Daudi
Type: cell-based
Settings: Table 2
OBSERVABLE: IC50 (µM)

# COMPOUND_STRUCTURE, OBSERVABLE, MEASUREMENT_UNITS, VALUE_REPORTED
rows = [
    ("CCOC(=O)c1cc(CCc2ccc(OC)cc2)sc1N", "IC50", "µM", 43),
    ("COC(=O)c1cc(CCc2ccsc2)sc1N", "IC50", "µM", 37),
    ("COC(=O)c1cc(CCc2ccc(OC)cc2C)sc1N", "IC50", "µM", 61),
    ("CCOC(=O)c1cc(C#Cc2ccc(OC)cc2)sc1N", "IC50", "µM", 43),
]

====

Test system: U937, human monocytic cells
Assay: Cytostatic assay, U937
Format: cell-based
Conditions: U-937, Table 2
OBSERVABLE: IC50 (µM)

Sample records with IC50:
# MOLECULE, IC50 (µM)
rows = [
    ("COC(=O)c1cc(CCc2ccccc2OC)sc1N [TR567]", 10),
    ("COC(=O)c1cc(-c2ccc(OC)cc2)sc1N [TR572]", 63),
    ("COC(=O)c1cc(CCc2ccsc2)sc1N [TR595]", 42),
]

1: COC(=O)c1cc(CCc2ccc(OC)cc2C)sc1N [TR583]
2: COC(=O)c1cc(-c2cc(OC)ccc2OC)sc1N [TR601]
Higher IC50 between 1 and 2 ? Give the label of your selection.
2
(2: 85 µM, 1: 40 µM)

====

Tested on: CEM cells
Experiment: Cytostatic assay, CEM
Format: cell-based
Conditions: Homo sapiens, CCRF-CEM; CEM cells; Table 7, 5-arylthiomethyl-substituted 2-amino-3-carboxymethylthiophenes; read-out: IC50 (μM) CEM
OBSERVABLE: IC50 (µM)

Sample records with IC50:
# COMPOUND_STRUCTURE, OBSERVABLE, VALUE_REPORTED
records = [
    ("COC(=O)c1cc(CSCCc2ccccc2)sc1N", "IC50", 1.2),
    ("COC(=O)c1cc(CSCc2ccco2)sc1N", "IC50", 4.9),
    ("COC(=O)c1cc(CSc2ccc([N+](=O)[O-])cc2)sc1N", "IC50", 12),
    ("COC(=O)c1cc(CSC2CCCCC2)sc1N", "IC50", 2.1),
    ("COC(=O)c1cc(CSc2ccc(F)cc2)sc1N", "IC50", 3.1),
    ("COC(=O)c1ccccc1SCc1cc(C(=O)OC)c(N)s1", "IC50", 27),
]

1: COC(=O)c1cc(CSc2cccc(C(=O)O)c2)sc1N
2: COC(=O)c1cc(CSc2ccc3ccccc3c2)sc1N
3: COC(=O)c1cc(CSc2ccc(C(C)C)cc2)sc1N
4: COC(=O)c1cc(CSC2CCCC2)sc1N
Ascending by IC50, please: list the compounds accordingly. List the labels in the requested order.
3, 2, 4, 1
(3: 0.46 µM, 2: 0.9 µM, 4: 1.8 µM, 1: 124 µM)

I: COC(=O)c1cc(CSc2ccncc2)sc1N
II: COC(=O)c1cc(CCCSC2CCCCC2)sc1N
Problem: Given the entries I and II , determine which has the lower reported IC50. Give the label of your selection.
II
(II: 0.57 µM, I: 111 µM)

====

Test system: Raji, human B-lymphoma cells
Test: Cytostatic assay, Raji
Assay type: cell-based
Conditions: Table 2
OBSERVABLE: IC50 (µM)

# COMPOUND_STRUCTURE, IC50 / µM
measured = [
    ("CCOC(=O)c1c(N)sc(CCc2cc(OC)ccc2OC)c1C(=O)OCC", 41),
]

P: N#Cc1cc(CCc2ccccc2)sc1N
Q: CCOC(=O)c1cc(CCc2cc(OC)ccc2OC)sc1N
Higher IC50 between P and Q ? Give the label of your selection.
P
(P: 39 µM, Q: 1.8 µM)

====

System: CEM cells
Assay: Cytostatic assay, CEM
Format: cell-based
Conditions: Homo sapiens, CCRF-CEM; Table 2; read-out: Cytostatic activity (μM) CEM
Procedure: To each well of a 96-well microtiter plate were added 5-7.5×10^4 cells and a given amount of the test compound. The cells were allowed to proliferate for 48 h to 96 h (depending on the nature of the cell line) at 37° C. in a humidified CO2-controlled atmosphere. At the end of the incubation period, the cells were counted in a Coulter Counter (Coulter Electronics Ltd, Harpenden Herts, United Kingdom).
OBSERVABLE: IC50 (µM)

# MOLECULE, IC50 (µM)
measured = [
    ("CCOC(=O)c1cc(CCc2ccccc2OC)sc1N [TR542]", 20),
    ("COC(=O)c1cc(-c2ccc(OC)cc2)sc1N [TR572]", 74),
    ("COC(=O)c1cc(-c2cc(OC)ccc2OC)sc1N [TR601]", 42),
]

a: COC(=O)c1c(N)sc(CCc2cc(OC)ccc2OC)c1C [TR599]
b: COC(=O)c1cc(CCc2ccc(OC)cc2C)sc1N [TR583]
Problem: Given the entries a and b , determine which has the lower reported IC50. Give the label of your selection.
b

I: COC(=O)c1cc(CCc2cccnc2)sc1N [TR597]
II: CCOC(=O)c1cc(C#Cc2ccc(OC)cc2)sc1N [TR530]
III: COc1ccc(-c2cc(C#N)c(N)s2)cc1 [TR582]
IV: CCOC(=O)c1cc(CCc2ccc(OC)cc2)sc1N [TR532]
V: COc1ccc(OC)c(CCc2cc(C#N)c(N)s2)c1 [TR589]
Ascending by IC50, please: list the molecules accordingly. List the labels in the requested order.
V, II, IV, I, III

I: CCOC(=O)c1cc(CCc2cc(OC)ccc2OC)sc1N [TR587]
II: COc1ccccc1CCc1cc(C#N)c(N)s1 [TR585]
Higher IC50 between I and II ? Give the label of your selection.
II
(II: 8.3 µM, I: 0.76 µM)

Origin of measurements: patent US9278958B2
